Ref: patent US8507464B2

- assay-notes: In vivo plasma or tumor pharmacokinetics of Compound 25 (Table 4)
- Design: species or system CD-1 mice (nude mice where noted)
- conditions-used: nude, mouse, tumor, ip, 150 mg/kg, 150 mg/kg i.p., Saline, nude mice with H460 tumor, Tumor PK
assay-endpoint: Cmax (ng/mL)

Cn1c(COP(=O)(NCCBr)NCCBr)cnc1[N+](=O)[O-]    3380

----------
- assay-notes: in vivo
- conditions-used: Balb/c, mouse, iv, 50 mg/kg
assay-endpoint: half-life (min)

Cn1c(COP(N)(=O)N(CCCl)CCCl)cnc1[N+](=O)[O-] (stereo not shown)    15.3

----------
- Test system: UV41 cells (XPF)
- assay-notes: Antiproliferation assay - DNA mutant repair cells
- conditions-used: Cricetulus griseus, 2 h, read-out: IC50 UV41 Air
pIC50: −log10 of the molar value.
assay-endpoint: pIC50

Cn1c(COP(=O)(NCCCl)NCCCl)cnc1[N+](=O)[O-]    4.70
Cn1c(COP(=O)(NCCBr)NCCBr)cnc1[N+](=O)[O-]    4.02

----------
- assay-notes: In vivo plasma or tumor pharmacokinetics of Compound 25 (Table 4)
- Set-up: species or system CD-1 mice (nude mice where noted)
- conditions-used: CD-1, mouse, plasma, po, 50 mg/kg, 50 mg/kg p.o., Saline, CD-1 mice
assay-endpoint: Cmax (ng/mL)

Cn1c(COP(=O)(NCCBr)NCCBr)cnc1[N+](=O)[O-]    930

----------
- assay-notes: In vivo plasma or tumor pharmacokinetics of Compound 25 (Table 4)
- Set-up: species or system CD-1 mice (nude mice where noted)
- conditions-used: CD-1, mouse, plasma, po, 50 mg/kg, 50 mg/kg p.o., Saline, CD-1 mice; read-out: AUC
assay-endpoint: AUC (ng·h/mL)

Cn1c(COP(=O)(NCCBr)NCCBr)cnc1[N+](=O)[O-] [Compound 25]    40400

----------
- assay-notes: in vivo
- conditions-used: CD-1, mouse, ip, 20 mg/kg
assay-endpoint: AUC

C[C@H](CCl)NP(=O)(N[C@H](C)CCl)OCc1cnc([N+](=O)[O-])n1C [Compound 37]    196 µg·h/mL

----------
- assay-notes: Pharmacokinetics after intravenous or intraperitoneal administration in mice (Table 2B)
- conditions-used: mouse, plasma, ip, 50 mg/kg
assay-endpoint: half-life (min)

O=[N+]([O-])c1ccc(COP(=O)(NCCCl)NCCCl)o1 [Compound 23]    9.6
Cn1c(COP(N)(=O)N(CCCl)CCCl)cnc1[N+](=O)[O-] (centres unmarked) [Compound 1]    15

----------
- System: H460 cells exposed as monolayers
- assay-notes: Clonogenic survival of monolayer cells (Example 35)
- conditions-used: Homo sapiens, NCI-H460, 2 h, read-out: IC90 H460 Monolayer Air
assay-endpoint: IC90 (µM)

Cn1c(COP(=O)(NCCBr)NCCBr)cnc1[N+](=O)[O-]    20
O=[N+]([O-])c1ccc(COP(=O)(NCCBr)NCCBr)o1    4
Cn1c(COP(=O)(NCCCl)NCCCl)cnc1[N+](=O)[O-]    100
Cn1c(COP(N)(=O)N(CCCl)CCCl)cnc1[N+](=O)[O-] (centres unmarked)    75

----------
- Tested on: NCI-H460 cells
- assay-notes: Antiproliferation assay - oxygen dependence
- Type: cell-based, human
- conditions-used: read-out: IC50 in H460 cells, N2
pIC50: −log10 of the molar value.
assay-endpoint: pIC50

C[C@H](CBr)NP(=O)(N[C@H](C)CBr)OCc1cnc([N+](=O)[O-])n1C [Compound 66]    6.52

----------
- assay-notes: in vivo
- conditions-used: CD-1, mouse, ip, 50 mg/kg
assay-endpoint: Tmax (min)

O=[N+]([O-])c1ccc(COP(=O)(NCCCl)NCCCl)o1 [Compound 23]    5
O=[N+]([O-])c1ccc(COP(=O)(NCCBr)NCCBr)o1 [Compound 24]    5
CN(CCCl)P(=O)(OCc1cnc([N+](=O)[O-])n1C)N(C)CCCl [Compound 5]    5
Cn1c(COP(=O)(NCCCl)NCCCl)cnc1[N+](=O)[O-] [Compound 36]    15

----------
- assay-notes: In vivo plasma or tumor pharmacokinetics of Compound 25 (Table 4)
- Set-up: species or system CD-1 mice (nude mice where noted)
- conditions-used: CD-1, mouse, plasma, iv, 50 mg/kg, 50 mg/kg i.v., 30% PEG/70% Saline, CD-1 mice; read-out: AUC
assay-endpoint: AUC (µg·h/mL)

Cn1c(COP(=O)(NCCBr)NCCBr)cnc1[N+](=O)[O-] [Compound 25]    325

----------
- assay-notes: logP (partitioning between octanol and water)
- Type: physicochemical
- conditions-used: logP
assay-endpoint: logP

O=[N+]([O-])c1ccc(COP(=O)(NCCBr)NCCBr)o1 [Compound 24]    < 0

----------
- assay-notes: in vivo
- conditions-used: CD-1, mouse, ip, 20 mg/kg
assay-endpoint: half-life (min)

C[C@H](CCl)NP(=O)(N[C@H](C)CCl)OCc1cnc([N+](=O)[O-])n1C    23.2

----------
- System: H460 cell line
- assay-notes: Anti-proliferation assay, hypoxia vs normoxia (Table 1A)
- conditions-used: Homo sapiens, NCI-H460, read-out: Hypoxia P (proliferation IC50)
pIC50: −log10 of the molar value.
Parameter threshold = 6. Response is Y when pIC50 meets or exceeds it, else N.

O=[N+]([O-])c1ccc(COP(=O)(NCCCl)NCCCl)s1    Y
CC(OP(N)(=O)N(CCCl)CCCl)c1ncc([N+](=O)[O-])n1C (stereo not drawn)    N
Cn1c(COP2(=O)N(CCCl)CCCN2CCCl)cnc1[N+](=O)[O-]    N
Cn1c([N+](=O)[O-])cnc1COP(=O)(NCCCl)NCCCl    N
CCN(CCCl)P(=O)(OCc1cnc([N+](=O)[O-])n1C)N(CC)CCCl    Y
CN(CCCl)P(=O)(OCc1ncc([N+](=O)[O-])n1C)N(C)CCCl    N
Cn1c(COP(=O)(N(CCCl)C2CC2)N(CCCl)C2CC2)cnc1[N+](=O)[O-]    Y
O=[N+]([O-])c1ccc(COP(=O)(NCCNP(=O)(OCc2ccc([N+](=O)[O-])o2)N(CCCl)CCCl)N(CCCl)CCCl)o1 (stereo not drawn)    Y
Cn1c(COP2(=O)N(CCBr)CCCN2CCBr)cnc1[N+](=O)[O-]    Y
CC(C)N(CCCl)P(=O)(OCc1cnc([N+](=O)[O-])n1C)N(CCCl)C(C)C    N
Cn1c(COP(N)(=O)N(CCCl)CCCl)cnc1[N+](=O)[O-] (stereo not drawn)    Y
Cn1c(COP(=O)(NCCBr)NCCBr)cnc1[N+](=O)[O-]    Y
O=[N+]([O-])c1ccc(COP(=O)(NCCCl)NCCCl)o1    Y
Cn1c([N+](=O)[O-])cnc1COc1ccc(COP(N)(=O)N(CCCl)CCCl)cc1F (stereo not drawn)    N
COc1cc(COP(=O)(N(C)CCCl)N(C)CCCl)ccc1OCc1cnc([N+](=O)[O-])n1C    N
O=[N+]([O-])c1ccc(COP(=O)(N(CCCl)CCCl)N2CCCC2)o1 (stereo not drawn)    N
O=[N+]([O-])c1ccc(COP(=O)(NCCBr)NCCBr)s1    Y
Cn1c(COc2ccc(COP(=O)(NCCCl)NCCCl)cc2F)cnc1[N+](=O)[O-]    N
O=[N+]([O-])c1ccc(COP(=O)(N(CCCl)CCCl)N2CCOCC2)o1 (stereo not drawn)    N
CN(CCCl)P(=O)(OCc1cnc([N+](=O)[O-])n1C)N(C)CCCl    N
O=[N+]([O-])c1ccc(COCOP(=O)(NCCCl)NCCCl)o1    N
Cn1c(COP2(=O)N(CCCl)CCN2CCCl)cnc1[N+](=O)[O-]    N
CN(CCCl)P(=O)(OCc1ccc([N+](=O)[O-])o1)N(C)CCCl    Y
O=[N+]([O-])c1ccc(COP(=O)(N(CCCl)CCCl)N(CCCl)CCCl)o1 [Compound P22, reference compound]    N
CN(C)P(=O)(OCc1cnc([N+](=O)[O-])n1C)N(CCCl)CCCl (stereo not drawn)    N
Cn1c([N+](=O)[O-])cnc1COc1ccc(COP(N)(=O)N(CCCl)CCCl)cc1 (stereo not drawn)    N
O=[N+]([O-])c1ccc(COP(=O)(NCCBr)NCCBr)o1    Y
Cn1c(COP(=O)(NCCCl)NCCCl)nc(Br)c1[N+](=O)[O-]    N

----------
- assay-notes: In vivo plasma or tumor pharmacokinetics of Compound 25 (Table 4)
- Set-up: species or system CD-1 mice (nude mice where noted)
- conditions-used: CD-1, mouse, plasma, po, 100 mg/kg, 100 mg/kg p.o., Saline, CD-1 mice; read-out: Half-life
assay-endpoint: half-life (min)

Cn1c(COP(=O)(NCCBr)NCCBr)cnc1[N+](=O)[O-]    95.2
